Assay: NCI Yeast Anticancer Drug Screen. Data for the rad18 strain (AID 177)
Settings: S. cerevisiae rad18 mutant growth inhibition; at 11.0 µM
This is part of a sample that, as a whole, favours compounds with a hit. Of some 79,000 tested, about 15% had one in any assay. Calls of active or inactive are those of the source. Rule as the data show it: active = growth inhibition above about 70%; inactive = the rest.
Classes used: true = active, false = inactive

> print(dat)
                                    molecule  discrete.label
 1       COc1ccc2nc(N/N=C/c3sccc3C)cc(C)c2c1           false
 2  CCOC(=O)/C(O)=C(/C=N/C(=S)Nc1c(CC)cccc1CC)C(=O)OCC           false
 3  CCCCCC(=O)C(C)(c1nc2n(c1O)/C(=N/C(=O)Nc1ccc(Cl)cc1)N=N2)c1nc2n(c1O)/C(=N/C(=O)Nc1ccc(Cl)cc1)N=N2           false
 4  CN(NC(=O)/C(=C/C=C/c1ccccc1)NC(=O)c1ccccc1)C1=C(Cl)C(=O)[N+](c2ccccc2)=CC1            true
 5   OC1C#CCSCC#C/C=C\1 (stereo unspecified)           false
 6              Cc1ccc2oc(-c3cccc(N)c3)nc2c1           false
 7          Cc1ccc(Cl)c2c(=O)c3ccccc3[nH]c12           false
 8  O=C1C(C(O)(C(F)(F)F)C(F)(F)F)CCC1C(O)(C(F)(F)F)C(F)(F)F (stereo unspecified)           false
 9        COc1ccc(/C=C2\CCc3ccccc3C2=O)cc1OC           false
10          c1cc2ccc3cc4ncccc4c4ccc(c1)c2c34           false
11  CC(C)OC(CCC#N)c1ccc(Cl)cc1 (stereo unspecified)           false
12  COc1cc(C(C)C(C(=O)O)C(=O)C(=O)O)cc(OC)c1OC (stereo unspecified)           false
13  c1ccc(C2=NNC3c4ccccc4-c4ccccc4N3C2)cc1 (stereo unspecified)           false
14  [O-]c1c2cc(-[n+]3c(-c4ccccc4)cc(-c4ccccc4)cc3-c3ccccc3)cc1COCCOCCOCCOCCOC2           false
15              COc1ccc(C(=O)OCCc2ccccc2)cc1           false
16                      O=CC(=C(I)I)c1ccccc1            true
17            O=C(O)/C=C\C(=O)NNc1ccc(Br)cc1            true
18               Cc1cnccc1N=Nc1ccc(N(C)C)cc1           false
19  O=c1c(Br)cc2c(-c3ccccc3)c3cc(Br)c(O)c(Br)c3oc-2c1Br           false
20  O=C1c2ccccc2C(=O)C1C(c1ccc(F)cc1)C1C(=O)c2ccccc2C1=O           false
21      C=Cc1c(C)c(O)cc2c1-c1ccc(O)c(C)c1CC2           false

* * *

Test: NCI Yeast Anticancer Drug Screen. Data for the CLN2oe strain (AID 163);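 also: 0% = growth of vehicle-only control cultures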
Conditions: S. cerevisiae CLN2oe strain, at 100.0 µM
About 79,000 compounds went through this panel and 15% of them were active in at least one assay; those are over-represented in the sample as a whole. The source made the active and inactive calls. Rule as the data show it: active = growth inhibition above about 70%; inactive = the rest.
Classes used: Y = active, N = inactive

> print(dat)
                                    molecule  discrete.label
 1  CN(C)c1ccc(C(c2ccc(Cl)cc2)c2ccc(N(C)C)cc2)cc1               Y
 2  OC(c1ccc(Br)cc1)(c1cccs1)C1CC1 (stereo unspecified)               Y
 3  CC(C)c1ccc(C2NC(=S)NC3=C2c2ccccc2C3=O)cc1 (stereo unspecified)               N
 4  CCCC(=O)OC(OC(=O)CCC)c1ccc([N+](=O)[O-])o1               N
 5  O=C1C=CC(=Nc2ccc3c(c2)Cc2cc(Cl)ccc2-3)O1               Y
 6    Cc1ccc2c(/C=C/c3ccc(N(C)C)cc3)ccnc2c1C               Y
 7                       Nc1cccc2cc(Cl)cnc12               N
 8    N#C/C(=C1C=C/C(=N\O)C(Cl)=C\1)c1ccccc1               N
 9  Cc1cccc[c]1[Sn]([Cl])([S]/C(C#N)=N/N=C/c1ccc(N(C)C)cc1)[c]1ccccc1C               Y
10        Nc1ccc2ncc(Nc3ccc(Cl)c(Cl)c3)nc2c1               Y
11  CCCCCCCCCCCCOC1C(COCCN2CCCC2)OC2OC(C)(C)OC21 (stereo unspecified)               Y
12                   O=c1[nH]cc(F)c(=O)[nH]1               N
13                CN(C)/N=N/c1nc[nH]c1C(N)=O               Y
14        Oc1ccc(Br)cc1C=Nc1cccc(C(F)(F)F)c1               N
15              COc1ccc(C(=O)OCCc2ccccc2)cc1               N
16   CN(C)N1C(=O)SCC(c2ccccc2)(c2ccccc2)C1=O               N

* * *

Experiment: NCI Yeast Anticancer Drug Screen. Data for the mlh1 strain (AID 171);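 also: 0% = growth of vehicle-treated control cultures of the same strain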
Settings: S. cerevisiae mlh1 strain growth inhibition; at 33.0 µM
About 79,000 compounds went through this panel and 15% of them were active in at least one assay; those are over-represented in the sample as a whole. Activity calls are given as the source filed them. Cut-off read from the data, not from the text of the source: active = growth inhibition above about 70%; inactive = the rest.
Classes used: T for active, F for inactive

> print(dat)
                                    compound  discrete.label
 1     Cc1nc2ccccc2c(=O)n1NC(=O)c1ccc(CS)cc1               F
 2   Cc1nc2ccc(NCCN(C)C)c3c(=O)c4ccccc4n1c23               F
 3  O=C(O)[C@H]1[C@@H](C2CCCCC2)O[C@@H](C2CCCCC2)O[C@H]1C(F)(F)F               F
 4  [N-]=[N+]=NC1CC(n2ccc(=O)[nH]c2=O)OC1COC(c1ccccc1)(c1ccccc1)c1ccccc1 (stereo not given)               T
 5  Cn1c(COc2ccc(/C=N/NC(=O)CCC(=O)N/N=C/c3ccc(OCc4c[n+]5ccccc5n4C)cc3)cc2)c[n+]2ccccc12               F
 6  c1cc(Nc2ccc3c(c2)OCO3)c2cc(C3CCCCC3)ccc2n1               F
 7  CCCCCCC(CCl)c1sc(-c2csc(CCNC(=O)OC(C)(C)C)n2)nc1C(=O)OC (stereo not given)               F
 8                       CC(=O)CC[N+](C)(C)C               F
 9                 O=[N+]([O-])c1ccc2nnnn2c1               F
10  O=C1OC(c2ccc(Cl)cc2)Sc2ccccc21 (stereo not given)               T

* * *

Experiment: NCI Yeast Anticancer Drug Screen. Data for the CLN2oe strain (AID 163);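 also: 0% = growth of vehicle-only control cultures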
Conditions: S. cerevisiae CLN2oe strain, at 33.0 µM, stronger effect = higher value
About 79,000 compounds went through this panel and 15% of them were active in at least one assay; those are over-represented in the sample as a whole.
Listed next: entries and their corresponding growth inhibition.
MEASURE NAME: growth inhibition (%)

> print(dat)
                                    molecule  output.unit  measured.value
 1  CC1=NN(C(=O)CC(=O)N(C(=O)c2ccccc2)c2ccc(Cl)cc2)C(=O)C1N=Nc1ccc([N+](=O)[O-])cc1 (centres undefined)            %              75
 2  COC(=O)C1(N2CCOCC2)CCC([C@@H](c2ccccc2)C(C)[N+](=O)[O-])C1 (some centres undefined)            %              -3
 3          COc1cc(NCCCCCNC(C)C)c2ncccc2c1Cl            %              14
 4    CCOC(=O)/C=C1\CCCn2c1ncc(C(=O)OCC)c2=O            %              12
 5    Cc1ccc2c(/C=C/c3ccc(N(C)C)cc3)ccnc2c1C            %              39
 6       COc1ccc2c(C)cc(N/N=C/c3sccc3C)nc2c1            %              65
 7  O=C(CCCN1CCC2(CC1)OC(=O)N(c1ccccc1)C2=O)c1ccccc1            %              71
 8  NCC(O)CSCc1ccc(Cl)cc1 (centres undefined)            %               0
 9       CCOc1nc(OCC)nc(-c2cccn2-c2ccccc2)n1            %               6
10  O=C(O)[C@H]1[C@@H](C2CCCCC2)O[C@@H](C2CCCCC2)O[C@H]1C(F)(F)F            %              -8
11  O=C1OC(/C=C/c2ccccc2)Sc2ccccc21 (centres undefined)            %               3
12    OC1C#CCSCC#C/C=C\1 (centres undefined)            %              -3
13  CC[C@@]1(OC(=O)CN(C)C)C(=O)OCc2c1cc1n(c2=O)Cc2cc3ccccc3nc2-1            %              73
14  CN1CCN(c2ccc3nc(-c4ccc5nc(-c6ccc(O)cc6)[nH]c5c4)[nH]c3c2)CC1            %              98
15  CCOC(=O)c1sc2[n+](c1C)C(=O)/C(=C/c1cc(OC)c(OC)c(OC)c1)S2            %              76
16         Oc1ccc(Cc2nccc3cc(O)c(O)cc23)cc1O            %              27
17                   O=c1[nH]cc(F)c(=O)[nH]1            %              19
18     COc1ccc(C(=O)NCCN(C)C)c2nc3ccccc3cc12            %              41
19  O=C1C=CC(=Nc2ccc3c(c2)Cc2cc(Cl)ccc2-3)O1            %              98
20                    CCCCCCCCCC/C=C\CC(=O)O            %              -5
21  CCOC(=O)C(NC(=O)c1ccccc1)[CH](c1ccccc1)[Sn]([c]1ccccc1)([c]1ccccc1)[c]1ccccc1 (centres undefined)            %              -6
22          CC(=O)O/N=C/c1c2ccccc2cc2ccccc12            %              -6
23  O=C(Nc1ccn(C2CC(O)C(COC(c3ccccc3)(c3ccccc3)c3ccccc3)O2)c(=O)n1)c1ccccc1 (centres undefined)            %              94
24  CCOC(=O)c1[nH]c2cccc3c2c1CC(Br)C3=O (centres undefined)            %             -39
25  CCN(CC)c1ccc(N=Nc2cc(S(=O)(=O)O)ccc2O)c(O)c1            %               9
26  CCC(C)/C(C)=N/NC(N)=O (centres undefined)            %              -6
27  CC1C=CN(N(C)C)C2=C1C(=O)c1cnccc1C2=O (centres undefined)            %              90
28  c1ccc2cc(OCC3CO3)c(OCC3CO3)cc2c1 (centres undefined)            %              -6
29      Cc1ccc(P(c2ccc(C)cc2)c2ccc(C)cc2)cc1            %              10
30  O=c1c(Br)cc2c(-c3ccccc3)c3cc(Br)c(O)c(Br)c3oc-2c1Br            %              23
31  CC(C)(C)[Si](C)(C)OCC1OC(n2cnc3c(N)ncnc32)C2OC(=S)OC12 (centres undefined)            %              -2
32  CC(C)c1ccc(C2NC(=S)NC3=C2c2ccccc2C3=O)cc1 (centres undefined)            %              -8
33     O=c1oc(C(C(F)(F)F)C(F)(F)F)nc2ccccc12            %               1
34  [O-]c1c2cc(-[n+]3c(-c4ccccc4)cc(-c4ccccc4)cc3-c3ccccc3)cc1COCCOCCOCCOCCOC2            %              -6
35  CN(NC(=O)/C(=C/C=C/c1ccccc1)NC(=O)c1ccccc1)C1=C(Cl)C(=O)[N+](c2ccccc2)=CC1            %              40
36  COc1cc(C(C)(C)C)cc(OC)c1C(O)(c1c(OC)cc(C(C)(C)C)cc1OC)c1c(OC)cc(C(C)(C)C)cc1OC            %              93
37      O=S(=O)(Oc1c(Cl)cc(Cl)cc1Cl)c1ccccc1            %             -14
38  COc1cc(C(C)C(C(=O)O)C(=O)C(=O)O)cc(OC)c1OC (centres undefined)            %               5
39                 O=C(Cc1ccccc1)c1ccc(O)cc1            %              53
40  c1cc(Nc2ccc3c(c2)OCO3)c2cc(C3CCCCC3)ccc2n1            %               4
41                  O=c1[nH]c(=O)n(CCCO)cc1F            %               3
42  Cc1c(N=Nc2ccc(Cl)cc2)c(C)n(C2OC(CO)C(O)C(O)C2O)c(=S)c1C#N (centres undefined)            %              15
43     Cc1nc2ccccc2c(=O)n1NC(=O)c1ccc(CS)cc1            %              22
44  CCOc1ccccc1N1C(=O)CC(Sc2ccccc2N)C1=O (centres undefined)            %             -15
